The measurements presented in this section are drawn from PubChem BioAssay AID624169.

Target: 5-hydroxytryptamine receptor 2A (Mus musculus) (UniProt P35363)
Sequence (P35363 whole entry, looked up): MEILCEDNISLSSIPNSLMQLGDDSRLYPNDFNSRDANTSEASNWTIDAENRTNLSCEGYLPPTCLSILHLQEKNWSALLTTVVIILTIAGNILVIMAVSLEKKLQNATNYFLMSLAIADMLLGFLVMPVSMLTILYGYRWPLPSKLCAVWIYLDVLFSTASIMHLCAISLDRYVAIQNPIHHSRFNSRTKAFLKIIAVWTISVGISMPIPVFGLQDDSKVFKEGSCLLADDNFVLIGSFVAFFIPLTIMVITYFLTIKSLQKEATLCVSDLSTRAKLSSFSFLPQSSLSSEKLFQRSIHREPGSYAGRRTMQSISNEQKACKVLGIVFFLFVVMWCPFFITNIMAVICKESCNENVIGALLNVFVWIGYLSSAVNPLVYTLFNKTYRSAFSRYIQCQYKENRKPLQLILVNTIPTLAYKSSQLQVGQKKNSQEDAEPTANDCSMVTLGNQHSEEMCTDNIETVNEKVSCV
Test: mouse Htr2a agonists via beta-arrestin recruitment, primary screen, cell-based, luminescence (AID 624169);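 further: 0% = plate median of compound wells and 100% = 30 µM serotonin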
Conditions: CHO-K1 mHTR2A beta-arrestin complementation, at 7.6 µM, percent of 30 µM serotonin response
Screen size: about 360,000 compounds; about 2,400 (0.67%) were called active.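 How the source made its calls: active means activation above a run cutoff, the mean activation of all tested compounds plus 3 SD (cut at about 14% in these data); inactive means the rest.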 This is one part of a sample in which actives are shown more often than they occur.
Assign a class; possible classes are 1.0 for active, 0.0 for inactive

Solved entries:
INSERT INTO assay_data (compound, system, answer_label) VALUES
  ('O=Cc1cn(CCOc2ccc(F)cc2)c2ccccc12', '5-hydroxytryptamine receptor 2A (Mus musculus) (UniProt P35363)', 0.0),
  ('O=C(CSc1nnc(Nc2ccccc2F)s1)NC1CCCC1', '5-hydroxytryptamine receptor 2A (Mus musculus) (UniProt P35363)', 0.0),
  ('CSc1ncnc2c1ncn2CCCNCc1cccs1', '5-hydroxytryptamine receptor 2A (Mus musculus) (UniProt P35363)', 1.0),
  ('COc1ccc(NC(=O)C(NC(C)=O)C(=O)NCc2ccccc2Cl)cc1 (configuration not stated)', '5-hydroxytryptamine receptor 2A (Mus musculus) (UniProt P35363)', 0.0),
  ('CSc1ncnc2c1ncn2CCCNCc1ccco1', '5-hydroxytryptamine receptor 2A (Mus musculus) (UniProt P35363)', 0.0);

Tell me the recorded outcome of this test for Cc1cccc(NC(=O)CSc2nnc(NC(=O)CN3CCOCC3)s2)c1 .
0.0

Tell me the recorded outcome of this test for C/C(CC(=O)NC(C)(C)C)=N\NC(=O)c1ccco1 .
0.0

Tell me the recorded outcome of this test for CSc1ncnc2c1ncn2CCCNCC(C)c1ccccc1 (configuration not stated) .
0.0
